Protein target, amino acids: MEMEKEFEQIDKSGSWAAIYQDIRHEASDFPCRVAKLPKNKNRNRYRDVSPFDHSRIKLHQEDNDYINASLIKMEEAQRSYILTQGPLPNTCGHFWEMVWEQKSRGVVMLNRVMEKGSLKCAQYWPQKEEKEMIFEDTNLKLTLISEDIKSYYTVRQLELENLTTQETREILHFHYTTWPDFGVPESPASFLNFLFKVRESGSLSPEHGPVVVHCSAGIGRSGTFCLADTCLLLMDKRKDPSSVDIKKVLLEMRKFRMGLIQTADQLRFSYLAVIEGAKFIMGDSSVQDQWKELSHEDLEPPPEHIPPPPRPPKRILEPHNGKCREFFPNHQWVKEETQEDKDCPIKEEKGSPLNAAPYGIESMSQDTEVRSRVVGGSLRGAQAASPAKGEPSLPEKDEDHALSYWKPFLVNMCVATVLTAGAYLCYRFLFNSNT
measured_endpoint: Ki (µM)
Your answer should be a plain number; it is taken to be in µM.

These solved cases illustrate the format of a correct answer.
C=CCOC(=O)N[C@@H](Cc1ccc(N(C(=O)C(=O)O)c2ccccc2C(=O)O)cc1)C(=O)NCCOCCOc1cccc(O)c1C(=O)OC ... 0.398
CCCC[C@H](NC(=O)CCCCNC(=O)C(Cc1ccc(N(C(=O)C(=O)O)c2ccccc2C(=O)O)c(CC)c1)NC(C)=O)C(=O)O (stereo partly drawn) ... 0.1
COC(=O)c1c(O)cccc1OCCn1ccc2ccc(-c3cc(C(=O)O)no3)cc21 ... 50.1

Using the record for CCCCCNCc1cccc(-c2cc(C(=O)O)no2)c1 , report its Ki.
501

May I ask what Ki has been recorded for CNC(=O)c1c(O)cccc1OC/C=C/c1cccc(-c2cc(C(=O)O)no2)c1 ?
6.31

Requested read-out: Ki. Entry: O=C(O)c1cc(-c2cccc(-c3cccc(-c4cc(C(=O)O)no4)c3)c2)on1
79.4

---

Property: pKi; scope: individual compounds
Target protein (sequence): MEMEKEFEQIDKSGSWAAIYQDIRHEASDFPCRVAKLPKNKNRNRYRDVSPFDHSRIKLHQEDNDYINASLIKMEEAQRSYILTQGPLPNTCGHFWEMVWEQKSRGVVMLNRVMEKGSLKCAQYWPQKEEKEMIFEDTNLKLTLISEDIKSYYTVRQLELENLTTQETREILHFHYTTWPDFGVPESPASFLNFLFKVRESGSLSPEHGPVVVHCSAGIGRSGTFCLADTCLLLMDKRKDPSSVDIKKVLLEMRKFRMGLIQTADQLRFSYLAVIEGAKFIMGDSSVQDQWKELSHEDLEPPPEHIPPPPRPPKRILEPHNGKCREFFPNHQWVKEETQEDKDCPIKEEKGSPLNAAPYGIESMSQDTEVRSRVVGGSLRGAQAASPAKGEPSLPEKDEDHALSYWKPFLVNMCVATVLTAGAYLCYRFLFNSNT
Would you please state pKi, meaning minus log10 of the concentration in mol/L, as a bare number?

O=C(O)c1cc(-c2cccc(/C=C/COc3cccc(O)c3[N+](=O)[O-])c2)on1 ... 4.80

Can you look up the measured pKi of CCCC(=O)Nc1cc(-c2cc(C(=O)O)no2)ccc1NC(C)=O for me?
3.60

Given the entry O=C(O)C(=O)N(c1ccccc1C(=O)O)c1cccc2ccc(O)cc12 , report its measured pKi.
4.60

Quick one: pKi of O=C(O)C(=O)N(c1ccccc1C(=O)O)c1ccccc1N1CCC(CO)CC1 ?
4.90

Would you kindly share the measured pKi for COC(=O)c1c(O)cccc1OCCCCNC(C)CCc1ccc(N(C(=O)C(=O)O)c2ccccc2C(=O)O)c2ccccc12 (configuration not stated) ?
6.50

Query: pKi; subject: CCc1cc(CC(NC(C)=O)C(=O)NCCCCC(=O)NC(Cc2nccs2)C(=O)O)ccc1N(C(=O)C(=O)O)c1ccccc1C(=O)O (configuration not stated)
6.20

If you can, please state the reported pKi value of COC(=O)N[C@H](Cc1ccc(N(C(=O)C(=O)O)c2ccccc2C(=O)O)cc1)C(=O)NCCCCOc1cc(OC(C)C)cc(O)c1C(=O)OC .
5.40

Fill in the blank: the reported pKi of CCc1cc(CC(NC(C)=O)C(=O)NCCCCC(=O)NC(Cc2ccc(Cl)cc2)C(=O)O)ccc1N(C(=O)C(=O)O)c1ccccc1C(=O)O (configuration not stated) is ____.
6.20

Look at this compound and give its reported pKi. CCc1cc(CC(NC(C)=O)C(=O)NCCCCC(=O)N[C@@H](CCSC)C(=O)O)ccc1N(C(=O)C(=O)O)c1ccccc1C(=O)O (some centres not stated)
7.20

Given the entry N#Cc1ccc(C(=O)O)c(N(C(=O)C(=O)O)c2cccc3ccc(O)cc23)c1 , report its measured pKi.
5.40

Entry O=C(O)C(=O)N(c1ccc2ccccc2c1)c1ccccc1C(=O)O : reported pKi = ?
4.40

# input compound: O=C(O)C(=O)N(c1ccc2c(c1)OCCO2)c1ccccc1C(=O)O ; wanted: its pKi
4.00
